PROTOCOL TEXT: Blood trough level of TAC in kidney transplant recipients with COVID-19 given ESV or NMV/RTV
CONDITION PARAMETERS: male, human, in vivo, 2 mg/day

| STRUCTURE SMILES STRING | MEASUREMENT UNITS | concentration at 24 day |
| --- | --- | --- |
| C=CC[C@@H]1/C=C(\C)C[C@H](C)C[C@H](OC)[C@H]2O[C@@](O)(C(=O)C(=O)N3CCCC[C@H]3C(=O)O[C@H](/C(C)=C/[C@@H]3CC[C@@H](O)[C@H](OC)C3)[C@H](C)[C@@H](O)CC1=O)[C@H](C)C[C@@H]2OC | ng/mL | 2.9 |

* * *

PROTOCOL TEXT: Blood trough level of TAC in kidney transplant recipients with COVID-19 given ESV or NMV/RTV
CONDITION PARAMETERS: male, human, in vivo, 2 mg/day

| STRUCTURE SMILES STRING | MEASUREMENT UNITS | concentration at 15 day |
| --- | --- | --- |
| C=CC[C@@H]1/C=C(\C)C[C@H](C)C[C@H](OC)[C@H]2O[C@@](O)(C(=O)C(=O)N3CCCC[C@H]3C(=O)O[C@H](/C(C)=C/[C@@H]3CC[C@@H](O)[C@H](OC)C3)[C@H](C)[C@@H](O)CC1=O)[C@H](C)C[C@@H]2OC | ng/mL | 2.6 |

* * *

PROTOCOL TEXT: Blood trough level of TAC in kidney transplant recipients with COVID-19 given ESV or NMV/RTV
CONDITION PARAMETERS: female, human, in vivo, 3 mg/day

| STRUCTURE SMILES STRING | concentration at 5 day (ng/mL) |
| --- | --- |
| C=CC[C@@H]1/C=C(\C)C[C@H](C)C[C@H](OC)[C@H]2O[C@@](O)(C(=O)C(=O)N3CCCC[C@H]3C(=O)O[C@H](/C(C)=C/[C@@H]3CC[C@@H](O)[C@H](OC)C3)[C@H](C)[C@@H](O)CC1=O)[C@H](C)C[C@@H]2OC | 36.5 |

* * *

PROTOCOL TEXT: Blood trough level of TAC in kidney transplant recipients with COVID-19 given ESV or NMV/RTV
CONDITION PARAMETERS: male, human, in vivo, 2 mg/day

| STRUCTURE SMILES STRING | concentration at 10 day |
| --- | --- |
| C=CC[C@@H]1/C=C(\C)C[C@H](C)C[C@H](OC)[C@H]2O[C@@](O)(C(=O)C(=O)N3CCCC[C@H]3C(=O)O[C@H](/C(C)=C/[C@@H]3CC[C@@H](O)[C@H](OC)C3)[C@H](C)[C@@H](O)CC1=O)[C@H](C)C[C@@H]2OC | > 80 ng/mL |

* * *

PROTOCOL TEXT: Blood trough level of TAC in kidney transplant recipients with COVID-19 given ESV or NMV/RTV
CONDITION PARAMETERS: female, human, in vivo, 3 mg/day
PARAMETER: concentration at 10 day (ng/mL)

| MOLECULE | PARAMETER | DATA VALUE |
| --- | --- | --- |
| C=CC[C@@H]1/C=C(\C)C[C@H](C)C[C@H](OC)[C@H]2O[C@@](O)(C(=O)C(=O)N3CCCC[C@H]3C(=O)O[C@H](/C(C)=C/[C@@H]3CC[C@@H](O)[C@H](OC)C3)[C@H](C)[C@@H](O)CC1=O)[C@H](C)C[C@@H]2OC [TAC, Tacrolimus] | concentration at 10 day | 1.5 |
